# test_summary: Toxicity liver stage against HepG2, at 10uM
# Assay type: cell-based
# Set-up: test concentration 10 uM, cell line HepG2-A16-CD81EGFP
# condition_description: human, HepG2-A16-CD81EGFP cells; read-out: INHIBITION
measured_metric: cytotoxicity at 10 µM (%)
Return type: number; implicit unit %.

CCc1ncc2c(n1)CN(Cc1nc(-c3ccsc3)no1)CC2 | -4.99
Cc1nnsc1C(=O)N1CCC(c2nc3ccccc3[nH]2)CC1 | 2.5
CCN(C)S(=O)(=O)N1CCC(C(O)c2ccc(F)cc2)CC1 (stereo unspecified) | -22
O=C(C1CC(=O)N(C2CC2)C1)N1CCN(CCn2cccc2)CC1 (stereo unspecified) | -12
CCN(CC)CCCNC(=O)C(C)n1cc(Br)cn1 (stereo unspecified) | -3.33

Query string: Name the reported cytotoxicity at 10 µM value associated with the compound CCc1nnc2n1CCN(Cc1cccc3c1OCCO3)C2
Result string: -7.42

Origin of values: ChEMBL document CHEMBL4513216
